# Species: Homo sapiens
# ASSAY_SUMMARY: Relative ex vivo induction of IL1-beta in human whole blood stimulated with 10 ug/mL
# Format: functional
Reported Cytokine induction is given for each of the following molecules.
Lab note: record just the number, no unit beside it.

molecule="CCCCCCCCCCC[C@H](CC(=O)NC(CO[C@@H]1OC(CO)[C@H](OP(=O)(O)O)C(OC(=O)C[C@@H](CCCCCCCCCCC)OC(=O)CCCCCCCCC)[C@@H]1NC(=O)C[C@@H](CCCCCCCCCCC)OC(=O)CCCCCCCCC)C(N)=O)OC(=O)CCCCCCCCC (some centres not stated)" endpoint="Cytokine induction" observed_result=6.2

Turning now to a further record.
Name the recorded Cytokine induction for CCCCCCCCCCCCCC(=O)O[C@H](CCCCCCCCCCC)CC(=O)NCCO[C@@H]1OC(CO)[C@H](OP(=O)(O)O)C(OC(=O)C[C@@H](CCCCCCCCCCC)OC(=O)CCCCCCCCCCCCC)[C@@H]1NC(=O)C[C@@H](CCCCCCCCCCC)OC(=O)CCCCCCCCCCCCC (some centres not stated) .
0.3
